Origin of measurements: patent US20130296434A1

- Protocol details: Pharmacokinetics of single rising oral doses of PDS and food effect in healthy male subjects
- Format: in vivo, human
- Experimental setup: male, human, plasma, po, 1600 mg, single oral 1600 mg, Fasted, healthy male subjects, n = 8; mean
- Procedure: In the following examples, terms are as defined below. […] The safety, tolerability and pharmacokinetics of PDS following single oral administration in healthy male adult volunteers is determined. The effect of food on the pharmacokinetics of PDS is also determined. […] Plasma concentrations of PDS are determined using validated HPLC methods. […]
Measured parameter: AUC(0-t) (ng·h/mL)

O=S(=O)([O-])CCCS(=O)(=O)[O-].[Na+].[Na+] [PDS] : 11500
